Biological target: dopamine receptors
Assay: Receptor Binding Assay, displacement of ^3 H-Spiroperidol binding to calf caudate membranes
Settings: read-out: ^3 H-Spiroperidol (IC50); 0.15 nM ^3 H-Spiroperidol, calf caudate membrane homogenate, 37° C., 20 minutes; non-specific binding with 10^-5 M (+)-Butaclamol
Endpoint: IC50 (µM)
Numeric only. Scale: µM

[Q] Param item = CC(C)(C)C1(O)CCN(CC2c3ccccc3Oc3ccccc32)CC1.Cl [Compound F, hydrochloride] ; retrieve measured IC50.
[A] 5.9

[Q] Param item = CC(C)(C)C1(O)CCN(CC2c3ccccc3CCc3cc(Cl)ccc32)CC1 (centres unmarked) ; retrieve measured IC50.
[A] 0.27

[Q] Param item = Cl.Cl.NC1CCN(CC2c3ccccc3CCc3ccccc32)CC1 [Compound E, dihydrochloride] ; retrieve measured IC50.
[A] 30

[Q] Param item = `CC(C)(C)C1(O)CCN(CC(c2ccccc2)c2ccccc2)CC1` ; retrieve measured IC50.
[A] 3.6

[Q] Param item = `CC(C)(C)C1(O)CCN(CC2c3ccccc3CCc3ccccc32)CC1` ; retrieve measured IC50.
[A] 0.86

[Q] Param item = CC(C)(C)C1(O)CCN(CC2c3ccccc3Sc3ccccc32)CC1.Cl [Compound G, hydrochloride] ; retrieve measured IC50.
[A] 0.91

[Q] Param item = CC(C)(C)C1(O)CCN(CC2c3ccccc3C=Cc3ccccc32)CC1.Cl [Compound D, hydrochloride] ; retrieve measured IC50.
[A] 1.5

[Q] Param item = CC(C)(C)C1(O)CCN(CC2c3ccccc3CCc3ccc(Br)cc32)CC1.Cl (centres unmarked) [Compound C, hydrochloride] ; retrieve measured IC50.
[A] 0.22

Provenance of the data: patent US4188485A
